Data origin, for the record: BindingDB's records for doi:10.1021/acs.jmedchem.3c01236

targetOrSystem: UniProt:Q13547
Sequence (Q13547 whole entry): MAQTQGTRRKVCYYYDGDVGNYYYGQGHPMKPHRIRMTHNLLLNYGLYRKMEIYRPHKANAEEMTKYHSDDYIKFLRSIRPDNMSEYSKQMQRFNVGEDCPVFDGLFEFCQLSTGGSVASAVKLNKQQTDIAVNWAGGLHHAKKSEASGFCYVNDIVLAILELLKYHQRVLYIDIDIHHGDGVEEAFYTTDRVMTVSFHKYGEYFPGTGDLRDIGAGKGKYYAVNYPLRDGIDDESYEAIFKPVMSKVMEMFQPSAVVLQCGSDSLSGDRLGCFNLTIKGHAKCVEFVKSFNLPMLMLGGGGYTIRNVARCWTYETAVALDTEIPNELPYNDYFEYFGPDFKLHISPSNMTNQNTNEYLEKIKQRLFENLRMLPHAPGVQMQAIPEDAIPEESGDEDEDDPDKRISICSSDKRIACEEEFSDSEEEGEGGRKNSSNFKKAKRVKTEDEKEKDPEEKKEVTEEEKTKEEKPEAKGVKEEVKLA
quantityMeasured: IC50 (nM)
Just the number in nM, nothing appended.

Input C=CC(=O)N1CCC(OC(=O)NCc2ccc(C(=O)Nc3ccccc3N)cc2)CC1 . Output IC50: 685
